The binders listed here are annotated with their IC50, inhibition of pSTAT5.
# Tested On: T1, human Type 1 mutCALR on Ba/F3 cells expressing MPL and Type 1 mutCALR (human)
# T1 chain: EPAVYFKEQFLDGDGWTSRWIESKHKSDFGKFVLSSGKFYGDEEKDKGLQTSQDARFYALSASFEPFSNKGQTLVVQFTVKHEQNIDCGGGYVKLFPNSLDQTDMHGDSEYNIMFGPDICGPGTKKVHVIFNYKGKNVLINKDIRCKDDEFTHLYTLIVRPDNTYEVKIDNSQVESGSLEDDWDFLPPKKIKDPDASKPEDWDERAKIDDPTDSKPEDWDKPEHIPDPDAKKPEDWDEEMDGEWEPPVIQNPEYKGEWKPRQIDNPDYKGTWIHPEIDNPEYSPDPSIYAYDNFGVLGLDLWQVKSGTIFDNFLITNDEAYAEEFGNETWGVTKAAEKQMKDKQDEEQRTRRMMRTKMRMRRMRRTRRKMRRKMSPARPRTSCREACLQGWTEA
# Protocol Details: cell-based or functional assay

Binder: anti-mutCALR antibody clone 11 (antibody, human IgG1, lambda, V domains shown, human IgG1) VH: EVRLVQSGAEVKKPGASVKVSCKVSGYTLTELSMQWVRQAPGKGLEWMGGFDPDDGETMYAEKFQGRLTVTEDTSTDTVYMELRSLTSEDTALYFCATSPGYDFFDYWGQGTLVTVSS VL: QSALTQPRSVSGSPGQSVTISCTGTSSDVGGYNYVSWYQQHPGKAPKLMIYDVSKRPSGVPDRFSGSNSGNTATLTINRVEAGDEADYYCQVWDSSNDLLIFGGGTKLTVLG
IC50, inhibition of pSTAT5: 0.052 µg/mL
--
Binder: anti-mutCALR antibody clone 25 (antibody, human IgG1, lambda, V domains shown, human IgG1) VH: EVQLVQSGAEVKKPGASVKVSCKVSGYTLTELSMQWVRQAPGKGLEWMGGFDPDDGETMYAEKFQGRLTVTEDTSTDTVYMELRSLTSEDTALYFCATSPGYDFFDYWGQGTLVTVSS VL: SYELTQPPSVAVAPGQTARITCGGNNIGRKAVHWYQQKPGQAPVLVVYDDSDRPSGIPERFSGSNSGNTATLTINRVEAGDEADYYCQVWDSSNDLLIFGGGTKLTVLG
IC50, inhibition of pSTAT5: 0.024 µg/mL
--
Binder: anti-mutCALR antibody clone 33 (antibody, human IgG1, lambda, V domains shown, human IgG1) VH: QVQLVQSGAEVKKPGATVKISCKVSGYSFTDYFIHWVQQAPGKGLAWVGLVDPEDGETIYAEKFQGRVTITADTSTDTAYMELSSLRSEDTAVYYCATPGGILTDPDAFDIWGQGTMVTVSS VL: QSALTQPRSVSGSPGQSVTISCAGTGSDVGGYNHVSWYQHHPGKAPKLMIYDVNKRPSGVPDRFSGSKSGNTASLTISGLQAEDEADYYCSSYIPSSTRWVFGGGTKLTVLG
IC50, inhibition of pSTAT5: 80.4 µg/mL
--
Binder: anti-mutCALR antibody clone 27 (antibody, human IgG1, lambda, V domains shown, human IgG1) VH: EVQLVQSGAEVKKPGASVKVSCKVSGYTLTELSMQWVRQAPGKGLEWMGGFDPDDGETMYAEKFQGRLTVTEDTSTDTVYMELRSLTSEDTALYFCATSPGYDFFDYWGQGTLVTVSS VL: SYVLTQPPSVSVAPGQTARITCGGNNIGIKSVHWYQQKPGQAPVLVVYDDRDRPSGIPERFSGSNSGNTATLTINRVEAGDEADYYCQVWDSSNDLLIFGGGTKLTVLG
IC50, inhibition of pSTAT5: 0.037 µg/mL
--
Binder: anti-mutCALR antibody clone 29 (antibody, human IgG1, lambda, V domains shown, human IgG1) VH: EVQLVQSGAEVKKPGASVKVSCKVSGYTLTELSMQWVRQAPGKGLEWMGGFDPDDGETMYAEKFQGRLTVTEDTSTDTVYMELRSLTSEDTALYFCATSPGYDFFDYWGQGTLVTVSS VL: SYVLTQPPSVSVAPGKTARITCGGNNIGSKSVHWYQQKPGQAPVLVVYDDSDRPSGIPERFSGSNSGNTATLTISRVEAGDEADYYCQVWDSSSDLLIFGGGAKLTVLG
IC50, inhibition of pSTAT5: 0.037 µg/mL
